# procedure summary: Plasma levels of 9-deoxo-16,16-dimethyl-9-methylene-PGE2 by radioimmunoassay after insertion of a suppository
# Type: in vivo, Rhesus monkeys (Macaca mulatta)
# measurement context: rhesus monkey, plasma, 30 mg, plasma; Monkey #5; 24 Hours; 30 mg Potassium Salt in H15 Suppositories; read-out: Drug Levels
Counter-ions that a name gives are not always drawn.

{"compound": "C=C1C[C@@H](O)[C@H](/C=C/[C@@H](O)C(C)(C)CCCC)[C@H]1C/C=C\\CCCC(=O)O [Potassium Salt]", "concentration at 24 h [ng/mL]": 16.2}

====

# procedure summary: Plasma levels of 9-deoxo-16,16-dimethyl-9-methylene-PGE2 by radioimmunoassay after insertion of a suppository
# Format: in vivo, Rhesus monkeys (Macaca mulatta)
# measurement context: rhesus monkey, plasma, 30 mg, plasma; Monkey #17; 0.25 Hours; 30 mg Potassium Salt in H15 Plus 2% CSD + 10% Triacetin Suppositories; read-out: Drug Levels
Counter-ions that a name gives are not always drawn.
experimental readout: concentration at 0.25 h

{"compound": "C=C1C[C@@H](O)[C@H](/C=C/[C@@H](O)C(C)(C)CCCC)[C@H]1C/C=C\\CCCC(=O)O [Potassium Salt]", "experimental value": "7.98 ng/mL"}

Source: patent EP0097439A2
